Tested on: Escherichia coli (including ESBLs, non-ESBLs)
Measurement Protocol: MIC, two-fold agar dilution (CLSI), clinical isolates
Format: cell-based
Measurement Parameters: clinical isolate ECO− 15-4
Source text: 1. The invention adopts the two-fold agar dilution method recommended by the operating procedure of antimicrobial susceptibility testing set by American Clinical and Laboratory Standards Institute (CLSI) to determine the Minimum Inhibitory Concentration (MIC) of the test samples against the tested strains.
Endpoint: Anti-bacterial activity (MIC), strain ECO− 15-4 (µg/mL)
Numeric only. Scale: µg/mL

Cc1cc(NC(=O)[C@@H]2CC3(CC3)CN2C(=O)[C@@H](CC(=O)NO)CC2CCCC2)no1; 32
O=C(C[C@@H](CC1CCCC1)C(=O)N1CC2(CC2)C[C@H]1C(=O)Nc1nc(C(F)(F)F)cs1)NO; 32

Output Anti-bacterial activity (MIC), strain ECO− 15-4 of O=C(C[C@@H](CC1CCCC1)C(=O)N1CC2(CC2)C[C@H]1C(=O)Nc1ccno1)NO
16

====

Tested on: Enterococcus faecalis (EFA)
Measurement Protocol: MIC, two-fold agar dilution (CLSI), clinical isolates
Format: cell-based
Measurement Parameters: strain EFA 15-9
Endpoint: log10 MIC (anti-bacterial activity) (log10 of the value in µg/mL)
Use the decimal logarithm of MIC (anti-bacterial activity) (µg/mL).

CCCC[C@H](CN(O)C=O)C(=O)N1CC2(CC2)C[C@H]1C(=O)Nc1nccs1 [Example 22]; 0.30
Cc1csc(NC(=O)[C@@H]2CC3(CC3)CN2C(=O)[C@H](CC2CCCC2)CN(O)C=O)n1 [Example 33]; 0.00
O=CN(O)C[C@@H](CC1CCCC1)C(=O)N1CC2(CC2)C[C@H]1C(=O)N1CCS(=O)(=O)CC1 [Example 35]; 1.51
CCCC[C@H](CN(O)C=O)C(=O)N1CC2(CC2)C[C@H]1C(=O)NC1CC1 [Example 18]; 1.51
CCCC[C@H](CN(O)C=O)C(=O)N1CC2(CC2)C[C@H]1C(=O)Nc1nc(C)cs1 [Example 19]; 0.90
O=CN(O)C[C@@H](CC1CCCC1)C(=O)N1CC2(CC2)C[C@H]1C(=O)Nc1ncco1 [Example 36]; 1.20

Output log10 MIC (anti-bacterial activity) of O=CN(O)C[C@@H](CC1CCCC1)C(=O)N1CC2(CC2)C[C@H]1C(=O)NC1CC1 [Example 32]
0.90

Output log10 MIC (anti-bacterial activity) of O=CN(O)C[C@@H](CC1CCCC1)C(=O)N1CC2(CC2)C[C@H]1C(=O)Nc1ccncn1 [Example 27]
0.30

====

Test system: methicillin-sensitive Staphylococcus aureus (MSSA)
Measurement Protocol: MIC, two-fold agar dilution (CLSI), clinical isolates
Assay type: cell-based
Measurement Parameters: strain MSSA 15-4
Endpoint: Anti-bacterial activity (MIC) (µg/mL)
Numeric only. Scale: µg/mL

Consider the worked cases shown below.
CCCC[C@H](CC(=O)NO)C(=O)N1CC2(CCCC2)C[C@H]1C(=O)Nc1ncc(C)s1 [Example 79]; 0.125
CCCC[C@H](CN(O)C=O)C(=O)N1CCC[C@H]1C(=O)Nc1ccc(F)c[n+]1[O-] [LBM415, reference compound]; 0.5
CCCC[C@H](CC(=O)NO)C(=O)N1CC2(CCCC2)C[C@H]1C(=O)Nc1cc(C)on1 [Example 80]; 1

Output Anti-bacterial activity (MIC) of C[C@H]1COc2c(N3CCN(C)CC3)c(F)cc3c(=O)c(C(=O)O)cn1c23 [levofloxacin, reference compound]
0.5

====

Tested on: methicillin-sensitive Staphylococcus aureus (MSSA)
Measurement Protocol: MIC, two-fold agar dilution (CLSI), clinical isolates
Assay type: cell-based
Measurement Parameters: clinical isolate MSSA 15-5
Binary call on Anti-bacterial activity (MIC), strain MSSA 15-5: Fulfilled from 0.5 µg/mL upward, Not fulfilled beneath that.

Worked examples follow.
CCCC[C@H](CC(=O)NO)C(=O)N1CC2(CCCC2)C[C@H]1C(=O)Nc1ccc(F)cn1; Not fulfilled
CCCC[C@H](CC(=O)NO)C(=O)N1CC2(CC2)C[C@H]1C(=O)Nc1ncco1; Fulfilled
O=C(C[C@@H](CC1CCCC1)C(=O)N1CC2(CC2)C[C@H]1C(=O)Nc1ncco1)NO; Fulfilled
CCCC[C@H](CC(=O)NO)C(=O)N1CC2(CC2)C[C@H]1C(=O)Nc1nc(C(F)(F)F)cs1; Not fulfilled
O=C(C[C@@H](CC1CCCC1)C(=O)N1CC2(CC2)C[C@H]1C(=O)Nc1cnccn1)NO; Fulfilled

State whether the measured Anti-bacterial activity (MIC), strain MSSA 15-5 reaches 0.5 µg/mL, counting equality as reaching it, for CCCC[C@H](CC(=O)NO)C(=O)N1CC2(CC2)C[C@H]1C(=O)Nc1cnccn1
Fulfilled

State whether the measured Anti-bacterial activity (MIC), strain MSSA 15-5 reaches 0.5 µg/mL, counting equality as reaching it, for CCCC[C@H](CC(=O)NO)C(=O)N1CC2(CC2)C[C@H]1C(=O)Nc1cnn(CCN(C)C)c1
Fulfilled

====

System: methicillin-sensitive Staphylococcus aureus (MSSA)
Measurement Protocol: MIC, two-fold agar dilution (CLSI), clinical isolates
Type: cell-based
Measurement Parameters: strain MSSA 14-3
Endpoint: MIC (anti-bacterial activity) (µg/mL)
Numeric only. Scale: µg/mL

Consider the worked cases shown below.
CCCC[C@H](CN(O)C=O)C(=O)N1CC2(CC2)C[C@H]1C(=O)Nc1ccc(F)c[n+]1[O-] [Example 2]; 0.125
CCCC[C@H](CN(O)C=O)C(=O)N1CC2(CC2)C[C@H]1c1nnc(-c2ccccn2)o1 [Example 12]; 2
CCCC[C@H](CN(O)C=O)C(=O)N1CC2(CC2)C[C@H]1C(=O)Nc1ccc(C)c(Nc2nccc(-c3cccnc3)n2)c1 [Example 4]; 0.015

Here's the next entry for you.
Output MIC (anti-bacterial activity) of CCCC[C@H](CN(O)C=O)C(=O)N1CC2(CC2)C[C@H]1c1nnc2ccccn12 [Example 13]
1

====

Below, each entry is listed with its recorded MIC (anti-bacterial activity).
Test system: methicillin-resistant Staphylococcus epidermidis (MRSE)
Measurement Protocol: MIC, two-fold agar dilution (CLSI), clinical isolates
Assay type: cell-based
Measurement Parameters: strain MRSE 15-7
Numeric only. Scale: µg/mL

Answer briefly: MIC (anti-bacterial activity) recorded on methicillin-resistant Staphylococcus epidermidis (MRSE) for CCCC[C@H](CN(O)C=O)C(=O)N1CC2(CC2)C[C@H]1c1nc2ccccc2n1CCN(C)C [Example 24]
8

Answer briefly: MIC (anti-bacterial activity) recorded on methicillin-resistant Staphylococcus epidermidis (MRSE) for CCCC[C@H](CN(O)C=O)C(=O)N1CC2(CC2)C[C@H]1C(=O)Nc1cnccn1 [Example 15]
0.25

Answer briefly: MIC (anti-bacterial activity) recorded on methicillin-resistant Staphylococcus epidermidis (MRSE) for CCCC[C@H](CN(O)C=O)C(=O)N1CC2(CC2)C[C@H]1C(=O)Nc1nncs1 [Example 23]
1

Answer briefly: MIC (anti-bacterial activity) recorded on methicillin-resistant Staphylococcus epidermidis (MRSE) for CCCC[C@H](CN(O)C=O)C(=O)N1CC2(CC2)C[C@H]1C(=O)Nc1ccc(N2CCOCC2)cc1 [Example 14]
1

Answer briefly: MIC (anti-bacterial activity) recorded on methicillin-resistant Staphylococcus epidermidis (MRSE) for O=CN(O)C[C@@H](CC1CCCC1)C(=O)N1CC2(CC2)C[C@H]1C(=O)Nc1cnccn1 [Example 26]
0.5

Answer briefly: MIC (anti-bacterial activity) recorded on methicillin-resistant Staphylococcus epidermidis (MRSE) for CCCC[C@H](CN(O)C=O)C(=O)N1CC2(CC2)C[C@H]1C(=O)Nc1ccno1 [Example 17]
1

Answer briefly: MIC (anti-bacterial activity) recorded on methicillin-resistant Staphylococcus epidermidis (MRSE) for COC(=O)c1sccc1NC(=O)[C@@H]1CC2(CC2)CN1C(=O)[C@H](CC1CCCC1)CN(O)C=O [Example 34]
4

Answer briefly: MIC (anti-bacterial activity) recorded on methicillin-resistant Staphylococcus epidermidis (MRSE) for CCCC[C@H](CN(O)C=O)C(=O)N1CC2(CC2)C[C@H]1C(=O)Nc1nccs1 [Example 22]
0.125

====

System: Streptococcus pneoumoniae (SPN)
Measurement Protocol: MIC, two-fold agar dilution (CLSI), clinical isolates
Format: cell-based
Measurement Parameters: strain SPN 16-2
Endpoint: Anti-bacterial activity (MIC) (µg/mL)
Numeric only. Scale: µg/mL

Output Anti-bacterial activity (MIC) of Cc1cc(NC(=O)[C@@H]2CC3(CC3)CN2C(=O)[C@@H](CC(=O)NO)CC2CCCC2)no1
2

Output Anti-bacterial activity (MIC) of O=C(C[C@@H](CC1CCCC1)C(=O)N1CC2(CC2)C[C@H]1C(=O)Nc1nc(C(F)(F)F)cs1)NO
1

Output Anti-bacterial activity (MIC) of O=C(C[C@@H](CC1CCCC1)C(=O)N1CC2(CC2)C[C@H]1C(=O)Nc1ccno1)NO
0.5

Output Anti-bacterial activity (MIC) of O=C(C[C@@H](CC1CCCC1)C(=O)N1CC2(CC2)C[C@H]1C(=O)Nc1cccnn1)NO
0.25

Output Anti-bacterial activity (MIC) of O=C(C[C@@H](CC1CCCC1)C(=O)N1CC2(CC2)C[C@@H]1c1nc2ccccc2[nH]1)NO
8

Output Anti-bacterial activity (MIC) of O=C(C[C@@H](CC1CCCC1)C(=O)N1CC2(CC2)C[C@H]1C(=O)Nc1nccs1)NO
0.5

Output Anti-bacterial activity (MIC) of O=C(C[C@@H](CC1CCCC1)C(=O)N1CC2(CC2)C[C@H]1C(=O)NC1CC1)NO
2

Output Anti-bacterial activity (MIC) of CCCC[C@H](CC(=O)NO)C(=O)N1CC2(CCCC2)C[C@H]1C(=O)Nc1ncc(C)s1
0.06
